systemUnderTest: Fuc(a1-2)Gal(b1-3)GlcNAc(b1-3)[Gal(b1-4)GlcNAc(b1-6)]Gal(b1-4)Glc
testDescription: glycan array binding signal (z-score within array); higher = stronger binding
conditionSet: glycan notation: IUPAC condensed, linker removed
Shown is part of a subset that was picked to be rich in the strongest signals.
readout: glycan array binding signal (z-score)
Reply briefly: the number, and no unit.

binder="OS9 (Arabidopsis thaliana) (protein) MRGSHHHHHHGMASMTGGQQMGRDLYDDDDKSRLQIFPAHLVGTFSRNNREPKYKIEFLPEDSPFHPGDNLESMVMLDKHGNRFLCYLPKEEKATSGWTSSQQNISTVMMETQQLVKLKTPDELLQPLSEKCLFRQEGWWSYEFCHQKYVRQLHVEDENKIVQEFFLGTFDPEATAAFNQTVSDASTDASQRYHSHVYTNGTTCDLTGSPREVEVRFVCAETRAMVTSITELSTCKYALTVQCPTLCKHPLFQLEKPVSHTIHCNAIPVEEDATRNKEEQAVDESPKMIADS" endpointvalue=2.66

Now turn to the next binder.
In: Reported glycan array binding signal (z-score), binder Sp8391B-bot-388-20-388 (Bacteroides ovatus) (protein) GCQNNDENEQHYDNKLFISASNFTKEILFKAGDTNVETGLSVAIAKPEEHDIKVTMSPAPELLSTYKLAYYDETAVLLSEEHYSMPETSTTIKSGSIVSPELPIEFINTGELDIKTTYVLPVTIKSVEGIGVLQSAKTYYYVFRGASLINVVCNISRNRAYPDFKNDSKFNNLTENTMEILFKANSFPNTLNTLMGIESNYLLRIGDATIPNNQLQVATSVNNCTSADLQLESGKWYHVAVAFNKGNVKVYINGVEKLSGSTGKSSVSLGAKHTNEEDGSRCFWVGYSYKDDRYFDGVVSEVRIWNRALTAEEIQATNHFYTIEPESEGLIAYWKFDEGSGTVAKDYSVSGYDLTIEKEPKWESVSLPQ : ____
Out: -0.322
